experiment: NRU assay (lysosomal membrane integrity), murine fibroblasts; type: cell-based, mouse; conditions: mouse, NIH/3T3 embryonic fibroblasts; NIH/3T3, 48 h, mean ± SD, n = 3; read-out: CC50 betulin NRU 48 h
Experimental readout: CC50 at 48 h (µg/mL)
Supply the numeric figure in µg/mL, leaving out any unit text.

Just so you know, measured CC50 at 48 h for `C=C(C)[C@@H]1CC[C@]2(CO)CC[C@]3(C)[C@H](CC[C@@H]4[C@@]5(C)CC[C@H](O)C(C)(C)[C@@H]5CC[C@]43C)[C@@H]12` came out at 7.33

----------
Experiment: MTT assay (mitochondrial activity), fish fibroblasts
Assay type: cell-based, bluegill
Settings: bluegill, BF-2 caudal trunk fibroblasts; BF-2, 48 h, mean ± SD, n = 3; read-out: CC50 betulin MTT 48 h
Protocol: BF-2 (ATCC CCL-91) bluegill caudal trunk fibroblasts were grown in minimum essential medium (Eagle, EBSS) supplemented with 1 % nonessential amino acids (NEAAs), 10 % foetal bovine serum and 1 % antibiotic-antimycotic solution at 23 °C in a humidified atmosphere with 5 % CO2. All experiments were repeated three times.
Experimental readout: CC50 at 48 h (µg/mL)
Supply the numeric figure in µg/mL, leaving out any unit text.

Just so you know, measured CC50 at 48 h for `C=C(C)[C@@H]1CC[C@]2(CO)CC[C@]3(C)[C@H](CC[C@@H]4[C@@]5(C)CC[C@H](O)C(C)(C)[C@@H]5CC[C@]43C)[C@@H]12` came out at 2.75

----------
assay: in vitro; type: cell-based, mouse; conditions: mouse, NIH/3T3, 72 h, mean ± SD, n = 3; read-out: CC50 betulin SRB 72 h
Experimental readout: CC50 (µg/mL)
Supply the numeric figure in µg/mL, leaving out any unit text.

Just so you know, measured CC50 for C=C(C)[C@@H]1CC[C@]2(CO)CC[C@]3(C)[C@H](CC[C@@H]4[C@@]5(C)CC[C@H](O)C(C)(C)[C@@H]5CC[C@]43C)[C@@H]12 [betulin, Betulin] came out at 3.76

----------
assay: SRB assay (total cellular protein content), fish fibroblasts; assay type: cell-based, bluegill; conditions: bluegill, BF-2 caudal trunk fibroblasts; BF-2, 24 h, n = 3; read-out: CC50 betulin SRB 24 h
Experimental readout: CC50 at 24 h

Just so you know, measured CC50 at 24 h for C=C(C)[C@@H]1CC[C@]2(CO)CC[C@]3(C)[C@H](CC[C@@H]4[C@@]5(C)CC[C@H](O)C(C)(C)[C@@H]5CC[C@]43C)[C@@H]12 [betulin, Betulin] came out at > 31.2 µg/mL

----------
experiment: MTT assay (mitochondrial activity), murine fibroblasts; conditions: mouse
Experimental readout: CC50 at 24 h (µg/mL)
Supply the numeric figure in µg/mL, leaving out any unit text.

Just so you know, measured CC50 at 24 h for `C=C(C)[C@@H]1CC[C@]2(CO)CC[C@]3(C)[C@H](CC[C@@H]4[C@@]5(C)CC[C@H](O)C(C)(C)[C@@H]5CC[C@]43C)[C@@H]12` came out at 1.53

----------
Test: MTT assay (mitochondrial activity), murine fibroblasts
Conditions: mouse
Protocol: NIH/3T3 (ATCC CRL-1658) mouse embryonic fibroblasts were grown in Dulbecco’s modified Eagle’s medium (DMEM) supplemented with 2 mM glutamine, 10 % foetal bovine serum and a 1 % antibiotic-antimycotic solution at 37 °C in a humidified atmosphere with 5 % CO2. […] All experiments were repeated three times. […] Differences between the two cell lines at the same time points were determined using Student’s t-test. […]
Experimental readout: CC50 at 72 h

Just so you know, measured CC50 at 72 h for `C=C(C)[C@@H]1CC[C@]2(CO)CC[C@]3(C)[C@H](CC[C@@H]4[C@@]5(C)CC[C@H](O)C(C)(C)[C@@H]5CC[C@]43C)[C@@H]12` came out at 1.85 µg/mL
